Assignment: determine reported pKd for the given binders.
# target-entity: T1, PUF4 RNA-binding domain (Saccharomyces cerevisiae, UniProt P25339 537-888)
# T1 sequence: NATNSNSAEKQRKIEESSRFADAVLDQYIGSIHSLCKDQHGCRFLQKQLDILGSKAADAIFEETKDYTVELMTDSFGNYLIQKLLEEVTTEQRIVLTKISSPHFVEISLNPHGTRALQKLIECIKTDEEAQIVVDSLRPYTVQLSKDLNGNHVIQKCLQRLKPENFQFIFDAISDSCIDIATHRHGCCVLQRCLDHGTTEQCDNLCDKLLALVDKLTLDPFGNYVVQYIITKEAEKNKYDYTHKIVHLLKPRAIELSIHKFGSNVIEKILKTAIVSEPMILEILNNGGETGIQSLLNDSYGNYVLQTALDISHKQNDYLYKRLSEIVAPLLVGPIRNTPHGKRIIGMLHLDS
# procedure-details: Mg; RNA-MaP; 20 mM Na-HEPES pH 7.4, 30 mM KOAc, 0.75 mM MgCl2, 0.1% Tween-20, 5% glycerol, 0.1 mg/mL BSA, 2 mM DTT; 25 C; 0.0125-409.6 nM protein
# assay-conditions: tags: N-His6-TEV cleaved; C-SNAP kept, Cy3B-labelled; label: tethered on chip by stalled RNA polymerase
Numbers only, as −log10 of the molar value.

Consider the reported pKd for these binders:
UCUCUUUGUAUAUCGAUCUCUU (ssRNA) [Ic_S1_P5E.1_K5.1_C5.1_H5.1_A5.1_[T6A]_[A7T]_F5.1_[T8C]_[T9G]_T5.1]
7.41
Ic_S4_P5E.1_K5.1_C5.1_H5.1_A5.1_[T5C]_[A7T]_F5.1_[T8A]_[T9C]_[A10G]_T5.1 (ssRNA) RNA: UUUGACAACUGAUCGUUCUUUCUUGUACUUACGUUCUUUCUCGAUCAGUUGUCUUU
6.25

# evaluate next
Qu. State the recorded pKd for this entry: UCUCUUUGUAUAUCCUCUCUU (ssRNA) [Ib_S1_P4E.1_K4.1_C4.1_H4.1_A4.1_F4.1_[T8C]_[A9C]_T4.1]
Ans. 7.72
